- Experimental Details: Metabolic stability in mouse liver microsomes assessed as extraction ratio at 1 uM
- Type: ADME, Microsome
Property Measured: hepatic extraction ratio at 1 µM (dimensionless ratio)

Worked examples, 5 compounds total:
COC[C@H](NC(=O)c1cc(C)on1)C(=O)N[C@@H](CC1CCCCC1)C(=O)N[C@@H](CC(C)C)C(=O)[C@@]1(C)CO1; 0.96
CCOc1cc(C(=O)N[C@@H](COC)C(=O)N[C@@H](COC)C(=O)N[C@@H](CC(C)C)C(=O)[C@@]2(C)CO2)no1; 0.69
COC[C@H](NC(=O)c1cc(C)on1)C(=O)N[C@@H](COC)C(=O)N[C@@H](Cc1ccccc1)C(=O)[C@@]1(C)CO1; 0.59
COC[C@H](NC(=O)c1cc(C)on1)C(=O)N[C@@H](C)C(=O)N[C@@H](CC(C)C)C(=O)[C@@]1(C)CO1; 0.48
COC[C@H](NC(=O)c1cc(C)on1)C(=O)N[C@@H](COC)C(=O)N[C@@H](CC(C)C)C(=O)[C@@]1(C)CO1; 0.67

a. COC[C@H](NC(=O)c1cc(C)on1)C(=O)N[C@@H](CC#N)C(=O)N[C@@H](CC(C)C)C(=O)[C@@]1(C)CO1
b. COC[C@H](NC(=O)c1cc(C)on1)C(=O)N[C@H](C(=O)N[C@@H](CC(C)C)C(=O)[C@@]1(C)CO1)C(C)C
Task for the reader: decide whether a or b has the larger hepatic extraction ratio at 1 µM. Pick one; state its label. b

====

Listed below: pIC50 values for each entry.
- Experimental Details: Inhibition of chymotrypsin-like activity of 20S proteasome in human MOLT4 cells after 1 hr by […]
- Format: cell-based
- Details: MOLT-4, 1 h
By convention, pIC50 is the negative base-10 log of a molar concentration.

// returns reported pIC50 for input COCC[C@H](NC(=O)c1cc(CN2CCOCC2)on1)C(=O)N[C@@H](Cc1ccccc1)C(=O)N[C@@H](CC(C)C)C(=O)[C@@]1(C)CO1 7.38

Now the compound COC[C@H](NC(=O)c1cc(C)on1)C(=O)N[C@@H](COC)C(=O)N[C@@H](Cc1ccccc1)C(=O)[C@@]1(C)CO1 7.46

Now the compound CC(C)C[C@H](NC(=O)[C@H]1CCCO1)C(=O)N[C@@H](Cc1ccccc1)C(=O)N[C@@H](CC(C)C)C(=O)[C@@]1(C)CO1 6.81

Now the compound Cc1cc(C(=O)N[C@@H](Cc2ccccn2)C(=O)N[C@@H](Cc2ccccc2)C(=O)N[C@@H](CC(C)C)C(=O)[C@@]2(C)CO2)no1 7.11

Now the compound COC[C@H](NC(=O)c1cc(OC)no1)C(=O)N[C@@H](COC)C(=O)N[C@@H](CC(C)C)C(=O)[C@@]1(C)CO1 7.49

Now the compound Cc1cc(C(=O)N[C@@H](Cc2ccncc2)C(=O)N[C@@H](Cc2ccccc2)C(=O)N[C@@H](CC(C)C)C(=O)[C@@]2(C)CO2)no1 8.07

====

- Experimental Details: Chemical stability in simulated intestinal fluid assessed as compound remaining at 4 uM after 15 mins
- Format: physicochemical
- Details: read-out: Stability
Property Measured: remaining at 0.25 h, 4 µM (%)

CC[C@H](NC(=O)[C@H](COC)NC(=O)c1cc(C)on1)C(=O)N[C@@H](CC(C)C)C(=O)[C@@]1(C)CO1; 100
COC[C@H](NC(=O)c1cc(C)on1)C(=O)N[C@@H](Cc1cscn1)C(=O)N[C@@H](CC(C)C)C(=O)[C@@]1(C)CO1; 100

P. CC(C)C[C@H](NC(=O)[C@H](Cc1ccccc1)NC(=O)[C@H](Cc1cscn1)NC(=O)c1cc(CN2CCOCC2)on1)C(=O)[C@@]1(C)CO1
Q. COC[C@H](NC(=O)c1cc(C)on1)C(=O)N[C@@H](COC)C(=O)N[C@@H](CC(C)C)C(=O)[C@@]1(C)CO1
R. CC(C)C[C@H](NC(=O)c1cc(CN2CCN(C)CC2)on1)C(=O)N[C@@H](Cc1ccccc1)C(=O)N[C@@H](CC(C)C)C(=O)[C@@]1(C)CO1
Rank the 3 molecules: largest remaining at 0.25 h, 4 µM first, smallest last. Returns: the labels arranged in the requested order. Q, R, P

I. COC[C@H](NC(=O)c1cc(C)on1)C(=O)N[C@@H](COC)C(=O)N[C@@H](Cc1ccccc1)C(=O)[C@@]1(C)CO1
II. Cc1cc(C(=O)N[C@@H](Cc2ccccn2)C(=O)N[C@@H](Cc2ccccc2)C(=O)N[C@@H](CC(C)C)C(=O)[C@@]2(C)CO2)no1
III. COC[C@H](NC(=O)c1cc(OC)no1)C(=O)N[C@@H](COC)C(=O)N[C@@H](CC(C)C)C(=O)[C@@]1(C)CO1
IV. CC(C)C[C@H](NC(=O)[C@H](Cc1ccccc1)NC(=O)[C@H](Cc1ccncc1)NC(=O)c1cc(CN2CCOCC2)on1)C(=O)[C@@]1(C)CO1
Rank the 4 molecules: largest remaining at 0.25 h, 4 µM first, smallest last. Returns: the labels arranged in the requested order. I, IV, III, II
(I: 90%, IV: 60%, III: 35%, II: 20%)

a. COC[C@H](NC(=O)c1ccon1)C(=O)N[C@@H](COC)C(=O)N[C@@H](Cc1ccccc1)C(=O)[C@@]1(C)CO1
b. CC(C)C[C@H](NC(=O)[C@H](Cc1ccccc1)NC(=O)[C@H](Cc1ccccn1)NC(=O)c1cc(CN2CCOCC2)on1)C(=O)[C@@]1(C)CO1
Task for the reader: decide whether a or b has the larger remaining at 0.25 h, 4 µM. Pick one; state its label. a

P. COC[C@H](NC(=O)c1cc(C)on1)C(=O)N[C@@H](CC(C)C)C(=O)N[C@@H](CC(C)C)C(=O)[C@@]1(C)CO1
Q. CC(C)C[C@H](NC(=O)CN1CCOCC1)C(=O)N[C@@H](Cc1ccccc1)C(=O)N[C@@H](CC(C)C)C(=O)[C@@]1(C)CO1
Of P versus Q , which is the one with smaller reported remaining at 0.25 h, 4 µM? Pick one; state its label. Q
(Q: 45%, P: 90%)

A. COC[C@H](NC(=O)c1cc(C)on1)C(=O)N[C@@H](C)C(=O)N[C@@H](CC(C)C)C(=O)[C@@]1(C)CO1
B. CCOc1cc(C(=O)N[C@@H](COC)C(=O)N[C@@H](COC)C(=O)N[C@@H](CC(C)C)C(=O)[C@@]2(C)CO2)no1
Task for the reader: decide whether A or B has the larger remaining at 0.25 h, 4 µM. Pick one; state its label. A
(A: 100%, B: 70%)

I. COC[C@H](NC(=O)c1cc(OC)no1)C(=O)N[C@@H](COC)C(=O)N[C@@H](Cc1ccccc1)C(=O)[C@@]1(C)CO1
II. CC(C)C[C@H](NC(=O)c1cc(CN2CCOCC2)on1)C(=O)N[C@@H](Cc1ccccc1)C(=O)N[C@@H](CC(C)C)C(=O)[C@@]1(C)CO1
Task for the reader: decide whether I or II has the larger remaining at 0.25 h, 4 µM. Pick one; state its label. I
(I: 100%, II: 60%)
